These data points were gathered from patent US8329904B2.

Biological target: human HSL (Homo sapiens, UniProt Q05469)
Construct: overlapping PCR to generate a full length human HSL ORF with a 3′-His6 tag; His6 (C)
Sequence (Q05469 whole entry): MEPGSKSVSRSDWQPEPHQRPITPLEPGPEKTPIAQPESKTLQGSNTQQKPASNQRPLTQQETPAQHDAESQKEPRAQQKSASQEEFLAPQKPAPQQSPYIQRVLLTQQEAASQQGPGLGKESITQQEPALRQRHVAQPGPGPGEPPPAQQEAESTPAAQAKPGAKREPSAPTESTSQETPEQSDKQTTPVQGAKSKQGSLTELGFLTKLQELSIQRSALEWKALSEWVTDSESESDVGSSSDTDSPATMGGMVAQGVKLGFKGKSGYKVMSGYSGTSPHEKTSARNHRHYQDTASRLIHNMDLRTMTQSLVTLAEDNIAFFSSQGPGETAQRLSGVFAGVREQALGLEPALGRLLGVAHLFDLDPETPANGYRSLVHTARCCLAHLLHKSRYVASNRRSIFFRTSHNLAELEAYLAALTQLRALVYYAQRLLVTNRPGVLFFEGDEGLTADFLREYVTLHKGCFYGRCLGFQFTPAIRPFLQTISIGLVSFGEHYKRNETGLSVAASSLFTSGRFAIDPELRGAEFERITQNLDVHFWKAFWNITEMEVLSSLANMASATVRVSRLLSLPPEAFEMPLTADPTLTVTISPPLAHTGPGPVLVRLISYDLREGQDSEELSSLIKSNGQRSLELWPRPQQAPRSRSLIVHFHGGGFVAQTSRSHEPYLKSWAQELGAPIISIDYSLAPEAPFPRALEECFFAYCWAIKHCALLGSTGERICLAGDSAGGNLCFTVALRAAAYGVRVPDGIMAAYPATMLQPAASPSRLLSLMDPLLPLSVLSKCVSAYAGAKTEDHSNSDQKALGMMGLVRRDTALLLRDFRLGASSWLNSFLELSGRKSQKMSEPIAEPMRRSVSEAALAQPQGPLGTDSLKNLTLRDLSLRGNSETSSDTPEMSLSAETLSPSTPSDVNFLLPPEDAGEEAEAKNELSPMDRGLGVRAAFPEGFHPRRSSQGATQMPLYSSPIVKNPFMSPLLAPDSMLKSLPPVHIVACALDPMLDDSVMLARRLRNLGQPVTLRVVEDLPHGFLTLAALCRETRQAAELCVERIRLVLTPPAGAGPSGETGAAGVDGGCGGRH
Test: Human Hormone-Sensitive Lipase (HSL) Enzyme Inhibition Assay
Details: colorimetric assay, 2,3-dimercapto-1-propanol tributyrate (DMPT) substrate, 37° C. for 20 minutes, absorbance at 405 nm; read-out: HSL hum IC50
REPORTED_METRIC: pIC50
One number for each entry, as −log10 of the molar value.

Worked cases, answers included:
{"columns": ["COMPOUND", "READOUT_NUMBER"],
 "data": [
  ["CC(C)CS(=O)(=O)N1CCC2(CCN(c3ccc(OC(C)C)cc3)C2=O)CC1 [Example 23]", 6.80],
  ["O=C1N(c2ccc(OCCC(F)(F)F)cc2)CCC12CCN(S(=O)(=O)c1ccccc1OC(F)(F)F)CC2 [Example 103]", 7.30],
  ["Cc1cc(CS(=O)(=O)N2CCC3(CCN(c4ccc(OC(F)(F)F)cc4)C3=O)CC2)no1 [Example 232]", 7.05],
  ["CC(C)CN(C)S(=O)(=O)N1CCC2(CCN(c3ccc(OC(F)(F)F)cc3)C2=O)CC1 [Example 293]", 7.10],
  ["CCC(C)c1ccc(N2CCC3(CCN(S(=O)(=O)N4CCOCC4)CC3)C2=O)cc1 (stereo not shown) [Example 44]", 7.00],
  ["O=C1N(c2ccc(OC(F)(F)F)cc2)CCC12CCN(S(=O)(=O)c1ncccn1)CC2 [Example 202]", 6.80],
  ["CC(C)(C)CC(=O)N1CCC2(CC1)CCN(c1ccc(C3CC3)cc1)C2=O [Example 35]", 6.77],
  ["CC(C)CS(=O)(=O)N1CCC2(CCN(c3ccc(C(O)C(F)(F)F)cc3)C2=O)CC1 (stereo not shown) [Example 167]", 7.15]
]}

Give pIC50 for all compounds that follow.
1. O=C(CC1CCC1)N1CCC2(CC1)CCN(c1ccc(OC(F)(F)F)cc1)C2=O [Example 216]
2. O=C1N(c2ccc(OCC(F)(F)F)cc2)CCC12CCN(S(=O)(=O)c1ccccc1Cl)CC2 [Example 115]

# output
1: 6.60; 2: 7.52

State recorded pIC50 for all listed compounds.
1. CCCCN(CC)C(=O)N1CCC2(CC1)CCN(c1ccc(OC(F)(F)F)cc1)C2=O [Example 303]
2. CS(=O)(=O)c1ccccc1S(=O)(=O)N1CCC2(CCN(c3ccc(OC(F)(F)F)cc3)C2=O)CC1 [Example 51]
3. O=C1N(c2ccc(Cc3nnc(C(F)(F)F)o3)cc2)CCC12CCN(S(=O)(=O)c1ccccc1Cl)CC2 [Example 138]
4. CC(Oc1ccc(N2CCC3(CCN(S(=O)(=O)C4CC4)CC3)C2=O)cc1)C(F)(F)F (stereo not shown) [Example 98]
5. CCCCOc1ccc(N2CCC3(CCN(S(=O)(=O)CC(C)C)CC3)C2=O)cc1 [Example 84]

# output
1: 6.85; 2: 6.85; 3: 6.28; 4: 6.77; 5: 6.70

# input Item CC(Oc1ccc(N2CCC3(CCN(S(=O)(=O)c4ccccc4Cl)CC3)C2=O)cc1)C(F)(F)F (stereo not shown) [Example 125] has what recorded pIC50?
# output 7.70

====

Target: human HSL (Homo sapiens, UniProt Q05469)
Construct: overlapping PCR to generate a full length human HSL ORF with a 3′-His6 tag; His6 (C)
Experiment: Human Hormone-Sensitive Lipase (HSL) Enzyme Inhibition Assay
Settings: colorimetric assay, 2,3-dimercapto-1-propanol tributyrate (DMPT) substrate, 37° C. for 20 minutes, absorbance at 405 nm; read-out: HSL hum IC50
pIC50: −log10 of the molar value.
Assign 1 whenever pIC50 does not fall below 7; assign -1 whenever it does.

Use these answered entries as a reference point.
{"columns": ["MOLECULE", "TARGET_OR_TEST_SYSTEM", "ASSIGNED_CLASS"],
 "data": [
  ["O=C1N(c2ccc(Oc3cccnc3)cc2)CCC12CCN(S(=O)(=O)c1ccccc1Cl)CC2 [Example 132]", "human HSL (Homo sapiens, UniProt Q05469)", -1],
  ["CC(C)Oc1ccc(N2CCC3(CCN(S(=O)(=O)C4CC4)CC3)C2=O)cc1 [Example 95]", "human HSL (Homo sapiens, UniProt Q05469)", -1],
  ["O=C1N(c2ccc(OC(F)(F)F)cc2)CCC12CCN(S(=O)(=O)c1ccccc1Cl)CC2 [Example 1]", "human HSL (Homo sapiens, UniProt Q05469)", 1],
  ["CC(Oc1ccc(N2CCC3(CCN(S(=O)(=O)c4ccccc4)CC3)C2=O)cn1)C(F)(F)F (racemic) [Example 25]", "human HSL (Homo sapiens, UniProt Q05469)", 1],
  ["CC(C)(C)CS(=O)(=O)N1CCC2(CCN(c3ccc(OC(F)(F)F)cc3)C2=O)CC1 [Example 19]", "human HSL (Homo sapiens, UniProt Q05469)", 1],
  ["COCCNS(=O)(=O)N1CCC2(CCN(c3ccc(OC(F)(F)F)cc3)C2=O)CC1 [Example 289]", "human HSL (Homo sapiens, UniProt Q05469)", -1],
  ["COCCCOc1ccc(N2CCC3(CCN(S(=O)(=O)CC(C)C)CC3)C2=O)cc1 [Example 107]", "human HSL (Homo sapiens, UniProt Q05469)", -1],
  ["Cn1cnc(S(=O)(=O)N2CCC3(CCN(c4ccc(OC(F)(F)F)cc4)C3=O)CC2)c1 [Example 181]", "human HSL (Homo sapiens, UniProt Q05469)", -1],
  ["O=C(Nc1ccc(F)cc1)N1CCC2(CC1)CCN(c1ccc(OC(F)(F)F)cc1)C2=O [Example 259]", "human HSL (Homo sapiens, UniProt Q05469)", -1],
  ["CCc1ccc(N2CCC3(CCN(S(=O)(=O)c4ccc(F)cc4C(F)(F)F)CC3)C2=O)cc1 [Example 75]", "human HSL (Homo sapiens, UniProt Q05469)", -1]
]}

# input Is it the case that CCOC(=O)Cc1ccc(N2CCC3(CCN(S(=O)(=O)c4ccccc4Cl)CC3)C2=O)cc1 [Example 134] has pIC50 reaching or exceeding 7?
# output 1

# input Continue with CC(C)Oc1ccc(N2CCC3(CCN(S(=O)(=O)c4ccccc4OC(F)(F)F)CC3)C2=O)cc1 [Example 87]
# output 1

# input Same question for CC(C)(C)CC(=O)N1CCC2(CC1)CCN(c1ccc(OC(F)(F)F)cc1)C2=O [Example 7] please.
# output 1

# input // repeat for COCc1ccc(N2CCC3(CCN(S(=O)(=O)c4ccccc4Cl)CC3)C2=O)cc1 [Example 142] and report
# output 1

# input Try the molecule COc1ccc(N2CCC3(CCN(S(=O)(=O)c4ccccc4)CC3)C2=O)nn1 [Example 16]
# output -1
